Data provenance: PubChem BioAssay (NCI)

Record form. Attribute: growth. Fill in for each entry.
system: OVCAR-5 ovarian; experiment: NCI-60 one-dose screen, 48 h (100 = growth as untreated, 0 = no growth, -100 = all killed); settings: 10 µM unless noted
About 83,000 compounds went through this panel and 20% of them were active in at least one assay; those are over-represented in the sample as a whole.
Numbers only, in %.

Answered examples (5):
INSERT INTO assay_data (compound, reported_property, measured_value) VALUES
  ('Cc1cc2nc(CC(=O)c3ccncc3)c(=O)[nH]c2cc1C', 'growth', 97.2),
  ('Cc1cc(C)c([I+]c2c(C)cc(C)cc2C)c(C)c1', 'growth', -7.26),
  ('CC(C)(C)c1ccc(CCO)cc1', 'growth', 91.4),
  ('CCc1oc2ccccc2c1C(=O)c1cc(Br)c(O)c(Br)c1', 'growth', 124),
  ('O=C(c1ccccc1)C(Br)[N+](=O)[O-] (stereo unspecified)', 'growth', 96.4);

Short answer please: growth, OVCAR-5 ovarian, entry O=C(O)c1cccc2cccc(-c3c4ccc(=O)c(O)c-4oc4c(O)c(O)ccc34)c12
97.5

----------
tested on: MDA-MB-231 breast; assay: NCI-60 one-dose screen, 48 h; settings: 10 µM unless noted
The panel holds about 83,000 compounds, 20% with a hit somewhere; the sample as a whole holds those more often. Active and inactive are the calls of the source. How the source made its calls: active means growth percent below 10; inactive means the rest.
I would appreciate it if you answered using one of these outcomes: active, inactive

INSERT INTO assay_data (molecule, discrete_label) VALUES
  ('CCCCCCCCCCCCNCCCc1ccccc1', 'inactive');

Recorded call for COC(=O)c1ccc(=O)c2nc3/c(=C/O)c(O)cc(=O)c3[nH]c12 ?
inactive

Test call for this molecule, please: CCc1cccc(CC)c1N1C(=O)C=CC1=O
inactive

----------
Can you tell me growth for the items I'm about to list?
Tested on: NCI-H460 lung
Experiment: NCI-60 one-dose screen, 48 h (100 = growth as untreated, 0 = no growth, -100 = all killed)
Conditions: 10 µM unless noted
Procedure: Growth inhibition of the NCI-H460 human Non-Small Cell Lung tumor cell line is measured as a screen for anti-cancer activity. Cells are grown in 96 well plates and exposed to the test compound for 48 hours. Compounds are tested at a single concentration, which is 10^-5 M for most compounds. The reported endpoint is percent growth (GI% or GIPRCNT), where numbers from 0 - 100% represent growth inhibition, and numbers from -100% - 0 represent cell death. […]
The panel holds about 83,000 compounds, 20% with a hit somewhere; the sample as a whole holds those more often.
Answers are plain numbers, in %.

Use the examples below as a reference point.
INSERT INTO measurements (molecule, tested_system, measured_value) VALUES
  ('CCCOS(=O)(=O)c1ccccc1', 'NCI-H460 lung', 106),
  ('Cc1nc([N+](=O)[O-])c(Sc2nncc(-c3ccccc3)n2)n1C', 'NCI-H460 lung', 110),
  ('CCN1CCCC(Nc2cc(C)nc(/N=C(/N)Nc3ccc(Cl)c(Cl)c3)n2)C1 (configuration not stated)', 'NCI-H460 lung', -18.8),
  ('CCC[CH2][Sn]1([CH2]CCC)[O]C2C(CO)OC(n3ccc(N)nc3=O)C2[O]1 (configuration not stated)', 'NCI-H460 lung', 12.1),
  ('O=C1C(=O)c2cccnc2-c2ncccc21', 'NCI-H460 lung', -57.3),
  ('CC(C)=CCCC(C)C1=C(O)C(=O)C(C)=CC1=O (configuration not stated)', 'NCI-H460 lung', 124),
  ('CN1CCC(CN2c3ccccc3Sc3ccccc32)C1 (configuration not stated)', 'NCI-H460 lung', 101),
  ('O=C(c1ccccc1)C(Br)[N+](=O)[O-] (configuration not stated)', 'NCI-H460 lung', 101),
  ('CCCCCCCCCCCCCCCC[N+]1(C)CCCC1c1cccnc1 (configuration not stated)', 'NCI-H460 lung', 23.6),
  ('CCc1cccc(CC)c1N1C(=O)C=CC1=O', 'NCI-H460 lung', 96.1);

Report growth for every entry below.
1. O=C1c2ccccc2C(=O)c2c(O)c(Cl)cc(O)c21
2. CCCCCCCCCCCC1=NCCCN1CCCC

[100, 101]

----------
system: A498 renal; assay: NCI-60 one-dose screen, 48 h (100 = growth as untreated, 0 = no growth, -100 = all killed); details: 10 µM unless noted
Compounds without any hit were thinned out: in the full panel of roughly 83,000, 20% have a hit.
reported.property: growth (%)
One number for each entry, in %.

Examples with answers:
INSERT INTO measurements (compound, tested_system, measured_value) VALUES
  ('COc1ccc(C(OCC2OC(n3ccc(NC(=O)c4ccccc4)nc3=O)C(O)C2O)(c2ccccc2)c2ccccc2)cc1 (stereo not given)', 'A498 renal', 52.8),
  ('CCCCCCCCCCCC[n+]1ccc(CCCCCCCCC)cc1', 'A498 renal', -25.4),
  ('Cc1ccc2c(c1)sc(-c1ccc(N(C)C)cc1)[n+]2C', 'A498 renal', -6.25),
  ('c1ccc(-c2cc3cc4ccccc4cn3c2)cc1', 'A498 renal', 96.3),
  ('COC(=O)[C@]1(C)CCC[C@]2(C)c3ccc(C(C)C)cc3C(=O)[C@@H](Br)[C@@H]12', 'A498 renal', 109),
  ('OCCOSCCO', 'A498 renal', 120);

List the reported growth of each compound below.
1. CN(C)c1ccc(/C=C/c2sc3ccc4ccccc4c3[n+]2C)cc1
2. Oc1ccc2c(c1)CCc1ccccc1-2
3. CCC(=O)c1cc([N+](=O)[O-])c(Br)s1
4. Cn1c(-c2ccccc2)c(/C=C/C2=[N+](C)c3ccccc3C2(C)C)c2ccccc21
5. S=C(S)OCN1CCOCC1
6. CCOC(=O)c1[nH]c(C#N)c(C(=O)OCC)c1C

1. -20.8
2. 68.6
3. 87
4. 3.03
5. 70.6
6. 96.7

For every listed record, write down its growth.
1. CC(CSc1n[nH]c(=S)s1)c1ccccc1 (stereo not given)
2. CCCCCCC1N=C(N)N=C(N)N1c1cccc(Cl)c1 (stereo not given)
3. Cc1nn(CCO)c(C)c1N=[N+]([O-])c1c(C)nn(CCO)c1C
4. CCOc1ccc(C(C[N+](=O)[O-])Sc2ccccc2N)cc1 (stereo not given)
5. Clc1ccc(-n2ncc3c(NCCCN4CCOCC4)ncnc32)cc1

1. 108
2. 83
3. 105
4. 109
5. 104

----------
system: MCF7 breast; experiment: NCI-60 one-dose screen, 48 h (100 = growth as untreated, 0 = no growth, -100 = all killed); settings: 10 µM unless noted
About 83,000 compounds went through this panel and 20% of them were active in at least one assay; those are over-represented in the sample as a whole.
Please provide measured growth for the entries that follow.
Answers are plain numbers, in %.

Examples from the recorded data:
INSERT INTO measurements (molecule, unit_annotation, measured_value) VALUES
  ('COC(=O)Nc1nc2ccc(C3(c4ccc(F)cc4)OCCO3)cc2[nH]1', '%', 15.7),
  ('CC(=O)OC1CC2CCC1(C)C2(C)C (configuration not stated)', '%', 103),
  ('O=C1C=CC(O)=CC1=P(c1ccccc1)(c1ccccc1)c1ccccc1', '%', 91.7),
  ('O=[N+]([O-])c1ccc(C(Br)c2ccc([N+](=O)[O-])cc2)cc1', '%', 70.8),
  ('c1csc(-c2[nH]nc3c2CCc2ccccc2-3)c1', '%', 5.26),
  ('Oc1ccc(Cl)cc1Cc1cc(Cl)ccc1O', '%', 31.9),
  ('C[n+]1ccccc1C[n+]1ccccc1', '%', 92.3),
  ('Cc1nnc(N/N=C/c2ccc([N+](=O)[O-])o2)[nH]c1=O', '%', 3.92),
  ('O=C(c1ccccc1)C(O)C(Br)(CBr)c1ccccc1 (configuration not stated)', '%', 81.5),
  ('O=C(Cc1nc2cc(Cl)c(Cl)cc2nc1CC(=O)c1ccccc1)c1ccccc1', '%', 9.51);

Would you mind listing growth for each of the following molecules?
1. CC(C)(C)c1ccc(O)c(Br)c1
2. S=C(SSC(=S)N1CCOCC1)N1CCOCC1

1: 95.3; 2: 66.5

----------
test system: CCRF-CEM leukemia; assay: NCI-60 one-dose screen, 48 h; conditions: 10 µM unless noted
This is part of a sample that, as a whole, favours compounds with a hit. Of some 83,000 tested, about 20% had one in any assay. Calls of active or inactive are those of the source. Rule for the calls: active = growth percent below 10; inactive = the rest.
Give your call using only these classes: true = active, false = inactive

INSERT INTO results (compound, discrete_label) VALUES
  ('OC(c1cc2ccc(C(F)(F)F)cc2c2cc(C(F)(F)F)ccc12)C1CCCCN1 (configuration not stated)', 'true');

Assay outcome for CCc1oc2ccccc2c1C(=O)c1cc(Br)c(O)c(Br)c1 : what was it?
false
